# Method Notes: Micro-PET scan of brain uptake of ^11C-labelled compound in SAMP8 model mice and control mice
# Format: in vivo
# Assay Setup: mouse, hippocampus, other: injection (kind of injection not stated), 31 μCi; SAMP8 model mice, 15 min after injection; read-out: hippocampus uptake of radiopharmaceuticals, Model mice
Measure: tissue uptake at 15 min (%ID/g)
Number only, in %ID/g; omit the unit.

Fill in reported tissue uptake at 15 min for this entry: "CNc1ccc(-c2nc3ccc(B(O)O)cc3s2)cc1"
3.5

###

# Method Notes: Micro-PET scan of brain uptake of ^11C-labelled compound in SAMP8 model mice and control mice
# Type: in vivo
# Assay Setup: mouse, cerebral cortex, other: injected (kind of injection not stated), 31 μCi; SAMP8 model mice, 25 min after injection; read-out: Cerebral cortex uptake of radiopharmaceuticals, Model mice
Measure: tissue uptake at 25 min (%ID/g)
Number only, in %ID/g; omit the unit.

Fill in reported tissue uptake at 25 min for this entry: "CNc1ccc(-c2nc3ccc(B(O)O)cc3s2)cc1"
2.79
